B1: tRNA (parent)
chain: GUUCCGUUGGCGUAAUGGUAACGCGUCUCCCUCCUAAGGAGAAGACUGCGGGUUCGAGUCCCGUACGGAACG

- Variants of: B1
- assay-notes: yeast fitness relative to wild type (ratio to wild type); higher = fitter; tRNA-Arg(CCU), competitive growth, 37 C, YPD
Fewer inactive variants are shown than the library holds.
Measured yeast fitness accompanies every entry in the list below.

Below are worked cases with known answers.
variant-designation: G17C G25C C30U A65C
property: yeast fitness
result-value: ≤ 0.5

variant-designation: A15G C24U C34U C61U
property: yeast fitness
result-value: ≤ 0.5

variant-designation: U13C C22G C24U A37C G51C C55U A69C A70U
property: yeast fitness
result-value: ≤ 0.5

variant-designation: G10C A37U G52A
property: yeast fitness
result-value: ≤ 0.5

Provide one value: measured yeast fitness of C5U G25A U26A G56C A65C ≤ 0.5

Provide one value: measured yeast fitness of C4G U8C G51A C66A ≤ 0.5
